- Assay Overview: in vivo
- Experimental Parameters: male, Balb/c, mouse, po, 10 mg/kg
Please go through the items and note down their Cmax.
Numbers only, in ng/mL.

Example compounds with recorded Cmax:
[
  {
    "Compound": "C=CC(=O)N1C[C@H](C)N(c2nc(=O)n(-c3c(SC)ccnc3C(C)C)c3nc(-c4c(O)cccc4F)c(F)cc23)C[C@H]1C (single isomer, unassigned) [Embodiment 114-1]",
    "Cmax, ng/mL": 1820
  },
  {
    "Compound": "C=CC(=O)N1C[C@H](C)N(c2nc(=O)n(-c3c(SC)ccnc3C(C)C)c3nc(-c4c(O)cccc4F)c(F)cc23)C[C@H]1C [Embodiment 114]",
    "Cmax, ng/mL": 1530
  }
]

Below: the item to evaluate.
Given the entry C=CC(=O)N1C[C@H](C)N(c2nc(=O)n(-c3c(SC)ccnc3C(C)C)c3nc(-c4c(N)ccc(Cl)c4F)c(Cl)cc23)C[C@H]1C (single isomer, unassigned) , report its measured Cmax.
264

Reference for the values: patent US12497396B2
